- Assay target: Full-length human MNK1 (Homo sapiens, UniProt Q9BUB5, T385D)
- Construct: GST (N); purchased Carna Biosciences 02-145; host or cells: baculovirus expression system
- Sequence (Q9BUB5 1-424 isoform Q9BUB5-2 T344D): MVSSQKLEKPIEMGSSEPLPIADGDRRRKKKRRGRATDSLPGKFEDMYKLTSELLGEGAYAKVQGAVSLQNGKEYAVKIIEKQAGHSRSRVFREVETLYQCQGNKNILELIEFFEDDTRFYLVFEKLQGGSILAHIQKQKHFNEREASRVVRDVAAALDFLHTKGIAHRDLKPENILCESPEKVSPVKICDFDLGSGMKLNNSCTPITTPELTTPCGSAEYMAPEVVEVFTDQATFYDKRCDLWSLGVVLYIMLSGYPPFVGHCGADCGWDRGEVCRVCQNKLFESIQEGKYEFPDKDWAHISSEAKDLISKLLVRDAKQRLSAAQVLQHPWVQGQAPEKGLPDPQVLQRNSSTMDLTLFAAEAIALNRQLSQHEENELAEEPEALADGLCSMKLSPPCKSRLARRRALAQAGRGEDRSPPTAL
- Test summary: MNK1 biochemical IC50 assay (Caliper Mobility Shift Assay)
- Setup conditions: read-out: P(IC50) MNK1 (converted)
- Source text: The phosphorylated peptide product and unphosphorylated peptide substrate were detected using a Caliper Mobility Shift Assay using the Caliper LabChip EZ Reader II. The Caliper Mobility Shift Assay technology is based on the utilisation of a microfluidic chip to measure the conversion of a fluorescent non-phosphorylated peptide substrate to phosphorylated product by electrophoresis separation of substrate and product and detection via Laser-induced fluorescence. […]
Readout kind: IC50 (nM)
Express your answer in nM, writing the number without its unit.

[ask] Data request, read-out IC50, for O=C(NC1CCOCC1)c1nc2c(N3CCc4ncccc43)ncnc2s1
[reply] 158

[ask] Data request, read-out IC50, for CO[C@H]1CCC[C@@H](Oc2cc(F)ccc2Nc2ncnc3sc(C(=O)NCC4CCNCC4)nc23)C1
[reply] 794

[ask] Data request, read-out IC50, for CN1CCC(NC(=O)c2nc3c(N4CCc5cc(F)ccc54)ncnc3s2)CC1
[reply] 3.98

[ask] Data request, read-out IC50, for NCCC1CN(c2ncnc3sc(C(=O)NCCC(F)(F)F)nc23)c2ccccc21 (stereo not drawn)
[reply] 7.94

[ask] Data request, read-out IC50, for C[C@@H]1Cc2ccccc2N1c1ncnc2sc(C(=O)NCC3CCNCC3)nc12
[reply] 12.6
